Where do these numbers come from? They come from the RNAGym collection of RNA variant scans (doi:10.1073/pnas.2313332121).

Below is a list of entries, each paired with its recorded polymerase ribozyme fitness (log ratio) value.
B1: TPR t1 (parent)
chain: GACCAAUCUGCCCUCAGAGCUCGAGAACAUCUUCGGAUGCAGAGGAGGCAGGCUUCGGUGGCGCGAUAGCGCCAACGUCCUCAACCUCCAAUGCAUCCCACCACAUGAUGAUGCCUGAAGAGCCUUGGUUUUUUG

- Variants of: B1
- MEASUREMENT NOTES: polymerase ribozyme fitness, log enrichment relative to wild type (log ratio); higher = more active; in vitro selection for triplet polymerase activity

[
  {
    "SEQ": "GACCAAUCUGCCCUCAGAGCUCGAGAACAUCUUCGGAUGCAGAGGAGGCAGGCUUCGGUGGCGCGAUAGCGCCAACGUCCUCAAUCUCCAAUGCAUCCCACCACAUGAAGAUGCCUGAAGAGCCUUGGUUUUUUG [C85U U109A]",
    "OBSERVED RESULT": -6.03
  },
  {
    "SEQ": "GACCAAUCUGCCCUCAGAGCUCGAGAACAUCUUCGGAUGCGGAGGAGGGAGGCUUCGUUGGCGCGAUAGCGCCAACGUACUCAACCUCCAAUGCAUCCCACCACAUGAUGAUGCCUGAAGAGCCUUGGUUUUUUG [A41G C49G G58U C79A]",
    "OBSERVED RESULT": -6.14
  },
  {
    "SEQ": "GACCAAUCUGCCCUCAGAGCUCGAGAACAUCUUCGGAUUCAGAGGAGGCAGGCUUCGGUGACGCGAUAGCGCCAACGUCCUCAACCUCCAAUGCAUCCCAUCACAUGAUGAUGCCUAGAGAGCCAUGGUUUUUUG [G39U G61A C101U G117A A118G U125A]",
    "OBSERVED RESULT": -0.872
  },
  {
    "SEQ": "GACCAAUCUGCGCUCAGAGCUCGAGAACAUCUUCAGAUGCAGAGGAGGCAGGCUUCGGUGGCGCGAUAGCGCCUACGUCCUCAACCUCCAAUGCAUCCCACCACAUGAUGAUGCCUGAAGAGCCUUGGUUUUUUG [C12G G35A A74U]",
    "OBSERVED RESULT": -4.41
  },
  {
    "SEQ": "GACCAAUCUGCCCUCAGAGCUCGAGAACAUCUUCGGAUGCAGAGGAGGCAGGCUUCGGUGGCGCGAUAGCGCCAACGUCCUCAACCUCCAAUGCAUCCCACCACAUGAUGAGGCCUGAAGAACCUUGAUUUUUUG [U112G G122A G128A]",
    "OBSERVED RESULT": -2.62
  }
]

Short answer for GACCAAUGUGCCCUCAUAGCUCGAGAACAUCUUCGGAUGCAGAGGAGGCAGGCUUCGGGGGCGCGAUAGCGCCAACGUCCUCAACCUCCAAUGCAUCCCACCACAUGAUGAUGCGUGGAGAGCCUUGGUUUUUUG [C8G G17U U59G C115G A118G] : polymerase ribozyme fitness (log ratio) was 0.49
